B1: ZNF193 (parent)
chain: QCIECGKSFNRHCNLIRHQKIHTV

Variants of: B1
testMethodNotes: protein stability index of a GFP-peptide fusion (GPS, HEK-293T) (PSI 1-6); higher = more stable;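 also: lentivirally expressed fusions sorted by FACS into six bins by GFP to DsRed ratio, PSI derived from sequencing read proportions per bin multiplied by bin number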
particulars: c terminus: a fixed tail appended
# label = True if protein stability index >= 3 else False

Worked cases, answers included:
- variantLabel: "H22A"
  assignedClass: "False"
- variantLabel: "R17A"
  assignedClass: "True"

Ask: For this variant, is measured protein stability index 3 or higher? "Q19L"
Reply: False

Ask: For this variant, is measured protein stability index 3 or higher? "Q19A"
Reply: False

Ask: For this variant, is measured protein stability index 3 or higher? "V24A"
Reply: True

Ask: For this variant, is measured protein stability index 3 or higher? "R17C"
Reply: True

Ask: For this variant, is measured protein stability index 3 or higher? "I16A"
Reply: False

Ask: For this variant, is measured protein stability index 3 or higher? "K7P"
Reply: False

Ask: For this variant, is measured protein stability index 3 or higher? "E4W"
Reply: True

Ask: For this variant, is measured protein stability index 3 or higher? "E4G"
Reply: False

Ask: For this variant, is measured protein stability index 3 or higher? "C13A"
Reply: True

Ask: For this variant, is measured protein stability index 3 or higher? "I3L"
Reply: True

Ask: For this variant, is measured protein stability index 3 or higher? "I21D"
Reply: True

Ask: For this variant, is measured protein stability index 3 or higher? "E4V"
Reply: True

Ask: For this variant, is measured protein stability index 3 or higher? "R11T"
Reply: True

Ask: For this variant, is measured protein stability index 3 or higher? "F9V"
Reply: False

Ask: For this variant, is measured protein stability index 3 or higher? "I21C"
Reply: True

Ask: For this variant, is measured protein stability index 3 or higher? "T23V"
Reply: True

Ask: For this variant, is measured protein stability index 3 or higher? "C2L"
Reply: False
